Where these numbers come from: patent US5214070A

# pIC50 annotations
# System: 5-LO
# MEASUREMENT NOTES: Test b): A23187-challenged heparinised human blood, LTB4 radioimmunoassay
# Type: cell-based
# SETUP CONDITIONS: A23187 challenge
pIC50: −log10 of the molar value.

C=CCO[C@@]1(c2cc(F)cc(Sc3ccc4ccccc4c3)c2)CCC[C@@H]1OC (racemic): ~6.70

We now examine a further compound.
For record CO[C@H]1CCC[C@@]1(OC)c1cc(F)cc(Sc2ccc3ccccc3c2)c1 (racemic) the listed pIC50 is ~6.70
